Data provenance: patent US5266319A

System: contraction of rat blood vessel (norepinephrine)
protocol_description: inhibition of norepinephrine-induced contraction of rat blood vessel
Type: in vivo
condition_summary: norepinephrine 10^-6 g/kg; dose 1 mg/kg i.v.; anesthetized normal rats; Means ± S.D.; n=8
measurement_name: Inhibition (%), Norepinephrine
Number only, in %; omit the unit.

Solved entries (count: 3):
# compound, unit_tag, Inhibition (%), Norepinephrine
records = [
    ("O=C(OC[C@H]1OC(O)[C@H](O)[C@@H](O)[C@@H]1O)c1cc(O)c(O)c(O)c1 (stereo partly drawn) [6-O-galloyl-D-glucose]", "%", 64.1),
    ("O=C1O[C@H]2[C@@H]3OC(=O)c4cc(O)c(O)c(O)c4-c4c(cc(O)c(O)c4O)C(=O)OC[C@H]2O[C@@H](OC(=O)c2cc(O)c(O)c(O)c2)[C@@H]3OC(=O)c2cc(O)c(O)c3c2[C@@H]2C1=CC(=O)[C@](O)(O3)C2(O)O [Geraniin, geraniin]", "%", 87.1),
    ("O=C(OC[C@H]1O[C@@H](OC(=O)c2cc(O)c(O)c(O)c2)[C@H](OC(=O)c2cc(O)c(O)c(O)c2)[C@@H](OC(=O)c2cc(O)c(O)c(O)c2)[C@@H]1OC(=O)c1cc(O)c(O)c(O)c1)c1cc(O)c(O)c(O)c1 [1,2,3,4,6-penta-O-galloyl-D-glucose, 1,2,3,4,6-penta-O-galloyl-β-D-glucose]", "%", 70.6),
]

Query block: Could you share which Inhibition (%), Norepinephrine value was measured for O=C(O[C@@H]1O[C@@H]2COC(=O)c3cc(O)c(O)c(O)c3-c3c(cc(O)c(O)c3O)C(=O)O[C@H]([C@H]1O)[C@@H]2O)c1cc(O)c(O)c(O)c1 [Corilagin, corilagin] ?
Result block: 83.4

----------
Tested on: spontaneously hypertensive rats (SHR)
protocol_description: depression of tail arterial blood pressure in spontaneously hypertensive rats (SHR)
Format: in vivo, rat
condition_summary: SHR; 1 mg/kg; injected; Means±S.D.; N=11
measurement_name: Depression of blood pressure, SHR (mmHg)
Number only, in mmHg; omit the unit.

Solved entries (count: 3):
# compound, unit_tag, assay_value
data = [
    ("O=C1O[C@H]2[C@@H]3OC(=O)c4cc(O)c(O)c(O)c4-c4c(cc(O)c(O)c4O)C(=O)OC[C@H]2O[C@@H](OC(=O)c2cc(O)c(O)c(O)c2)[C@@H]3OC(=O)c2cc(O)c(O)c3c2[C@@H]2C1=CC(=O)[C@](O)(O3)C2(O)O", "mmHg", 19.28),
    ("O=C(OC[C@H]1OC(O)[C@H](O)[C@@H](O)[C@@H]1O)c1cc(O)c(O)c(O)c1 (stereo partly shown)", "mmHg", 17.28),
    ("O=C(O[C@@H]1O[C@@H]2COC(=O)c3cc(O)c(O)c(O)c3-c3c(cc(O)c(O)c3O)C(=O)O[C@H]([C@H]1O)[C@@H]2O)c1cc(O)c(O)c(O)c1", "mmHg", 17.85),
]

Query block: Lab note: need Depression of blood pressure, SHR with spontaneously hypertensive rats (SHR) for entry O=C(OC[C@H]1O[C@@H](OC(=O)c2cc(O)c(O)c(O)c2)[C@H](OC(=O)c2cc(O)c(O)c(O)c2)[C@@H](OC(=O)c2cc(O)c(O)c(O)c2)[C@@H]1OC(=O)c1cc(O)c(O)c(O)c1)c1cc(O)c(O)c(O)c1 , please look it up.
Result block: 13.28
